assay: Solubility of dobutamine salts (as dobutamine base, in water); type: physicochemical; details: water; saturated solution; mg/ml of dobutamine; read-out: dobutamine provided by a saturated solution
Where a name gives a salt, the structure may show the parent alone.
Measurement label: solubility

Challenge: What does the data say about its solubility? Entry: CC(CCc1ccc(O)cc1)NCCc1ccc(O)c(O)c1 (stereo not shown) [dobutamine hydrochloride]
Response given: ~25 mg/mL
